Overview of reported pKd across a group of binders:
- EXPERIMENTAL SYSTEM: T1, CD3εδ heterodimer (Homo sapiens (Human), UniProt P07766 22-126; P04234 22-100)
- T1 construct: also called CD3ε8
- T1 sequence (P07766 other isoform, or with tags, fused parts or gaps mutant limits assumed, chain 1 of 2): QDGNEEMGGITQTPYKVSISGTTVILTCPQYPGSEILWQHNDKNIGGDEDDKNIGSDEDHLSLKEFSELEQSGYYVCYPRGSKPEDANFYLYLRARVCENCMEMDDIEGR
- T1 sequence (P04234 other isoform, or with tags, fused parts or gaps mutant limits assumed, chain 2 of 2): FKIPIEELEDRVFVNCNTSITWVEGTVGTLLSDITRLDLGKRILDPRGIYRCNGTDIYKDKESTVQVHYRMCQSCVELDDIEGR
- ASSAY: SPR, Biacore T200; antibody captured on Protein G (CM3 chip), CD3εδ heterodimer as analyte, single cycle kinetics, 37 C
When answering, recall that pKd equals minus log10 of the concentration in mol/L, and write that number alone.

Problem: Please indicate pKd recorded for CE115VH-F760mnP17/GLS3000-k0 (Combination of rat anti-CD3 antibody and human anti-CD3 antibody) (antibody, human IgG1, kappa, N297A, V domains shown) VH: EVQLVETGGSLVQPGKSLKLTCATSGFTFSNAWMHWVRQSPEKQLEWVAQIKAKSNNYATYYAESVKGRFTISRDDSKSNIYLQMNSLKEEDTAVYYCRYVHYGAYYGVDAWGQGTSVTVSS VL: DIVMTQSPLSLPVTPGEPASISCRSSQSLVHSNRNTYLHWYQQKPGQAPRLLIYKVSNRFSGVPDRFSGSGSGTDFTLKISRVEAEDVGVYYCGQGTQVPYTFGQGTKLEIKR
Solution: 6.58

More entries:
Problem: Return pKd (reported value) for this binder: CE115VH-F760mnP17/rCE115VL-k0 (Rat anti-CD3 antibody) (antibody, human IgG1, kappa, N297A, V domains shown) VH: EVQLVETGGSLVQPGKSLKLTCATSGFTFSNAWMHWVRQSPEKQLEWVAQIKAKSNNYATYYAESVKGRFTISRDDSKSNIYLQMNSLKEEDTAVYYCRYVHYGAYYGVDAWGQGTSVTVSS VL: DVVMTQTPVSMSVSLGGQVSISCRSSQSLVHNNGNTYVSWYIQKPSQSPQLLIYKVSNRFSGISDRFSGSGSGTDFTLKISRVEPDDLGVYYCGQGTQDPYTFGAGTKLELKR
Solution: 6.72

Problem: Please list pKd recorded for the binder CE115HA000-F760mnP17/GLS3000-k0 (Humanized anti-CD3 antibody) (antibody, human IgG1, kappa, N297A, V domains shown) VH: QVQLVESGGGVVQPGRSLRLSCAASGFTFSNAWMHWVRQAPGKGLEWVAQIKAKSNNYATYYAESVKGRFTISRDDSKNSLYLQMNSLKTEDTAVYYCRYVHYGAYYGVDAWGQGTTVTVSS VL: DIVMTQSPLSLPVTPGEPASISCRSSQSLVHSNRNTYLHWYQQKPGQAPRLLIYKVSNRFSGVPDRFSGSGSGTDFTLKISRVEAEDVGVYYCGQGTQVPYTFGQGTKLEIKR
Solution: 6.25

Problem: // Input: AN121H-F760mnP17/GLS3000-k0 (AN121) (antibody, human IgG1, kappa, N297A, V domains shown) VH: QVQLVESGGGLVQPGRSLRLSCAASGFTFSNAWMHWVRQAPGKGLEWVAQIKDKANGYNAYYAESVKGRFTISRDDSKNSIYLQMNSLKTEDTAVYYCRYVHYTTYAGFSYKFGVDAWGQGTTVTVSS VL: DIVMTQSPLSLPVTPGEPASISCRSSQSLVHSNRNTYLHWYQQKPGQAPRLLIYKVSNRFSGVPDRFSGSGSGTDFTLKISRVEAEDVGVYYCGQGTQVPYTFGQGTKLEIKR . Output its pKd only.
Solution: 8.01
